- experiment_description: Inhibition of Staphylococcus aureus UPPS-mediated condensation of FPP with IPP by spectrophotometric analysis
pIC50: −log10 of the molar value.
So I've got a bunch of compounds here, and I need their pIC50 values.

Could you share which pIC50 value was measured for `Cc1ccc(-c2ccc(/C=C3\SC(=S)N(CCCC(=O)O)C3=O)o2)c([N+](=O)[O-])c1` ? 5.24

Next up: `COc1cccc(/C=C2\SC(=S)N(Cc3ccco3)C2=O)c1OC` < 4.00

Can you handle `CCOc1cc(/C=C2\SC(=S)N(c3cccc(F)c3)C2=O)ccc1OC(=O)c1cccs1` next? < 3.70

Follow-up item: `CC(=O)c1ccc(-c2ccc(/C=C3\SC(=S)N(c4ccccc4)C3=O)o2)cc1` 4.49

Also, `CCN1C(=O)/C(=C/c2ccc(OCC(=O)O)cc2)SC1=S` please. < 4.00

Next record, please: `CN1C(=O)/C(=C/c2ccc(-c3cc(Cl)ccc3Cl)o2)SC1=S` < 3.70

What do you get for `CC1=CC(=O)/C(=C\N2C(=O)/C(=C/c3cccc(O)c3)SC2=S)C(=O)O1` ? < 4.00

Similarly, `CCN1C(=O)/C(=C/c2ccc(OC)cc2)SC1=S` ? < 4.00

Then this compound: `CCOc1cccc(/C=C2\SC(=S)N(Cc3ccco3)C2=O)c1O` < 4.00

// query: `O=C(O)c1ccc(N2C(=O)/C(=C/c3ccc(Br)cc3)SC2=S)cc1` 3.77

meta.source: ChEMBL document CHEMBL3286348
